All values here come from patent US8178506B2.

system: HeLa cells; experiment: Cell cycle assay in HeLa cells; format: cell-based, human; details: HeLa cells, 150 nM oligomeric compound, 48 hours after treatment; relative to untreated control (UTC=100)
In the oligonucleotide strings, read from the 5' end, every base follows the letter of its sugar. An asterisk marks phosphorothioate; unmarked linkages are phosphodiester. Other units and linkages are bracketed, terminal groups are in braces. A string of capitals states the bases alone. e = 2'-O-(2-methoxyethyl) (MOE); [5mC] = 5-methylcytosine; d = 2'-deoxy (DNA)
measurement_kind: % cells in cell cycle phase: G1 (%)
Please reply with the bare figure in % and do not write the unit itself.

327904 (antisense eA*e[5mC]*eT*e[5mC]*eA*e[5mC]*e[5mC]*eG*eA*e[5mC]*eA*eG*e[5mC]*eG*eT*eT*eG*eA*eA*eT*eG*eT*eT) [compound 327904] : 87

# % cells in cell cycle phase: G1 (substance: 328647 (eG*eG*eA*eG*eT*dA*dG*dA*dT*dG*dA*dT*dG*dG*dT*eT*eA*eG*e[5mC]*e[5mC]; antisense) [compound 328647] ) is 69

// recorded % cells in cell cycle phase: G1 for 327910 (antisense eT*eG*eA*eT*eA*eG*e[5mC]*e[5mC]*e[5mC]*eT*eG*eT*eA*e[5mC]*eA*eA*eT*eG*e[5mC]*eT*eG*e[5mC]*eT) [compound 327910] : 99

# % cells in cell cycle phase: G1 of 340365 (antisense TACTTTATATAGAACACAAG; sugars from the 5' end e5 d10 e5, all phosphorothioate, methylation of C not given here) [compound 340365] = 99

Measured % cells in cell cycle phase: G1 of 328676 (eA*e[5mC]*e[5mC]*eT*e[5mC]*d[5mC]*d[5mC]*dA*dG*d[5mC]*d[5mC]*dA*dA*dT*d[5mC]*e[5mC]*eA*eT*eG*eT; antisense) [compound 328676] : 86

---

Let's look at some substances and their measured Follistatin mRNA expression.
tested on: follistatin; test: Follistatin mRNA expression in HepG2 cells; assay type: cell-based, human; details: Experiment 2, insulin treated: HepG2 cells transfected with oligomeric compound, 1 nM insulin for four hours; UTC + 1 nM insulin = 100
In the oligonucleotide strings, read from the 5' end, every base follows the letter of its sugar. An asterisk marks phosphorothioate; unmarked linkages are phosphodiester. Other units and linkages are bracketed, terminal groups are in braces. A string of capitals states the bases alone. e = 2'-O-(2-methoxyethyl) (MOE); [5mC] = 5-methylcytosine; d = 2'-deoxy (DNA)
Reply with the value as a number alone.

Please review the following examples before continuing.
328377 (eT*e[5mC]*eA*e[5mC]*eT*d[5mC]*d[5mC]*dT*dA*dA*dA*dG*dG*dT*dT*e[5mC]*eA*eA*eG*eT; antisense) [compound 328377] : 159
328115 (antisense eA*eG*eA*eA*eG*eG*eT*eG*eG*eG*eG*eA*eG*e[5mC]*eA*eG*e[5mC]*eG*eT*e[5mC]*eA) [compound 328115] : 91

Value of measured Follistatin mRNA expression for the entry 327964 (antisense e[5mC]*e[5mC]*eA*eA*eG*eT*eT*e[5mC]*eT*eG*eT*e[5mC]*eA*eT*eG*e[5mC]*eA*e[5mC]*eT*eG*eA) [compound 327964] : 114

---

Listing of recorded % cells in cell cycle phase subG1 by entry.
test system: HeLa cells; assay: Cell cycle assay in HeLa cells; type: cell-based, human; conditions: HeLa cells, 150 nM oligomeric compound, 24 hours, relative to untreated control (UTC = 100)
In the oligonucleotide strings, read from the 5' end, every base follows the letter of its sugar. An asterisk marks phosphorothioate; unmarked linkages are phosphodiester. Other units and linkages are bracketed, terminal groups are in braces. A string of capitals states the bases alone. e = 2'-O-(2-methoxyethyl) (MOE); [5mC] = 5-methylcytosine; d = 2'-deoxy (DNA)

Would you please look over these solved cases?
327907 (antisense eA*eG*e[5mC]*e[5mC]*eT*eA*eT*e[5mC]*e[5mC]*eT*eG*eG*eA*eT*eT*eA*e[5mC]*eT*eT*eG*eA*eA) [compound 327907] : 224%
327906 (antisense eT*e[5mC]*eA*eT*eA*eG*e[5mC]*e[5mC]*e[5mC]*eT*eG*eT*eA*e[5mC]*eA*eA*eT*eG*e[5mC]*eT*eG*e[5mC]*eT) [compound 327906] : 228%
340925 (antisense GTGGTAATCCCTGGCAATGTGAT; sugars from the 5' end e5 d10 e8, all phosphorothioate, methylation of C not given here) [compound 340925] : 151%
338836 (antisense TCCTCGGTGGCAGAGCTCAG; all 2'-MOE, all phosphorothioate, methylation of C not given here) [compound 338836] : 153%
328115 (antisense eA*eG*eA*eA*eG*eG*eT*eG*eG*eG*eG*eA*eG*e[5mC]*eA*eG*e[5mC]*eG*eT*e[5mC]*eA) [compound 328115] : 177%

Recorded % cells in cell cycle phase subG1 (substance 340365 (antisense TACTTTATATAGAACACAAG; sugars from the 5' end e5 d10 e5, all phosphorothioate, methylation of C not given here) [compound 340365] ): 109%

Input 338637 (antisense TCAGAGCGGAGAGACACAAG; all 2'-MOE, all phosphorothioate, methylation of C not given here) [compound 338637] . Output % cells in cell cycle phase subG1: 88%

---

Entries and their HSL mRNA
test system: HSL; experiment: HSL mRNA expression in adipocytes (real-time PCR); type: cell-based, human; details: Table 17; differentiating adipocytes; control = treatment with ISIS 342673
In the oligonucleotide strings, read from the 5' end, every base follows the letter of its sugar. An asterisk marks phosphorothioate; unmarked linkages are phosphodiester. Other units and linkages are bracketed, terminal groups are in braces. A string of capitals states the bases alone. e = 2'-O-(2-methoxyethyl) (MOE); [5mC] = 5-methylcytosine

Observe how each entry below is paired with its result.
328135 (eA*e[5mC]*e[5mC]*eG*eA*eA*e[5mC]*eA*eA*eA*eG*eT*e[5mC]*eT*eG*eA*e[5mC]*eA*eG*eG*eA; anti-miR) [compound 328135] : 76.7 percentage of control
328129 (antisense eA*eG*e[5mC]*e[5mC]*eT*e[5mC]*e[5mC]*eT*eT*e[5mC]*eT*eT*e[5mC]*eT*e[5mC]*eG*eT*eA*e[5mC]*eT*eA) [compound 328129] : 56.5 percentage of control

Kindly consider the entry below.
Looking up 328138 (eG*eA*eG*e[5mC]*eT*eG*e[5mC]*eT*e[5mC]*eA*eG*e[5mC]*eT*eG*eG*e[5mC]*e[5mC]*eA*eT*e[5mC]*eA; anti-miR) [compound 328138] , I found its HSL mRNA recorded as 89.8 percentage of control

---

tested on: HeLa cells; test: Cell cycle assay in HeLa cells; assay type: cell-based, human; conditions: HeLa cells, 150 nM, 48 hours, relative to untreated control
In the oligonucleotide strings, read from the 5' end, every base follows the letter of its sugar. An asterisk marks phosphorothioate; unmarked linkages are phosphodiester. Other units and linkages are bracketed, terminal groups are in braces. A string of capitals states the bases alone. e = 2'-O-(2-methoxyethyl) (MOE); [5mC] = 5-methylcytosine; d = 2'-deoxy (DNA)
// reported % cells in cell cycle phase subG1 for each item listed
Reply with just the number (in %).

338797 (antisense CTGGGGAGGGGGTTAGCGTC; all 2'-MOE, all phosphorothioate, methylation of C not given here) [compound 338797] : 144
25691 (antisense eG*e[5mC]*e[5mC]*eA*eA*dG*dG*d[5mC]*dG*dT*dG*dA*d[5mC]*dA*dT*eG*eA*eT*eA*eT) [compound 25691] : 881
328342 (e[5mC]*eA*eA*eT*eT*dG*d[5mC]*dG*d[5mC]*dT*dA*d[5mC]*dA*dG*dA*eA*e[5mC]*eT*eG*eT) [compound 328342] : 103
328707 (eG*e[5mC]*eA*eA*e[5mC]*dA*dG*dG*d[5mC]*d[5mC]*dT*d[5mC]*dA*dA*dT*eA*eT*e[5mC]*eT*eT) [compound 328707] : 125
327905 (antisense e[5mC]*eA*eG*eA*e[5mC]*eT*e[5mC]*e[5mC]*eG*eG*eT*eG*eG*eA*eA*eT*eG*eA*eA*eG*eG*eA) [compound 327905] : 55
338666 (antisense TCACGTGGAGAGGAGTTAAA; all 2'-MOE, all phosphorothioate, methylation of C not given here) [compound 338666] : 214

From here, focus on the item given below.
% cells in cell cycle phase subG1 for 328744 (antisense e[5mC]*eG*eG*eA*eT*d[5mC]*d[5mC]*dT*dG*dT*dT*dA*d[5mC]*d[5mC]*dT*e[5mC]*eA*e[5mC]*e[5mC]*eA) [compound 328744] is 1057

---

system: B16-F10 cells; assay: Cell cycle assay in B16-F10 cells; assay type: cell-based, mouse; conditions: 150 nM, 48 hours, relative to untreated control
In the oligonucleotide strings, read from the 5' end, every base follows the letter of its sugar. An asterisk marks phosphorothioate; unmarked linkages are phosphodiester. Other units and linkages are bracketed, terminal groups are in braces. A string of capitals states the bases alone. e = 2'-O-(2-methoxyethyl) (MOE); [5mC] = 5-methylcytosine; d = 2'-deoxy (DNA)
measurement_kind: % cells in cell cycle phase S (%)
Unit % implied. Number only.

// recorded % cells in cell cycle phase S for 25691 (antisense eG*e[5mC]*e[5mC]*eA*eA*dG*dG*d[5mC]*dG*dT*dG*dA*d[5mC]*dA*dT*eG*eA*eT*eA*eT) [compound 25691] : 83

Notebook: 327933 (antisense eA*eA*eG*eG*eG*eA*eT*eT*e[5mC]*e[5mC]*eT*eG*eG*eG*eA*eA*eA*eA*e[5mC]*eT*eG*eG*eA*e[5mC]) [compound 327933] , % cells in cell cycle phase S read as 84

Form field % cells in cell cycle phase S, entry 327905 (antisense e[5mC]*eA*eG*eA*e[5mC]*eT*e[5mC]*e[5mC]*eG*eG*eT*eG*eG*eA*eA*eT*eG*eA*eA*eG*eG*eA) [compound 327905] : 89
